assay: inhibitors of HIV fusion peptide binding, primary screen, biochemical, uHTS, fluorescence dequenching (AID 1986); settings: cell-free peptide binding, 30 min, at 20 µM, hits give high values
The whole screen tested about 290,000 compounds, of which about 890 (0.31%) were called active. The full list was thinned out, with actives kept by preference.
endpoint: inhibition (%)
Please reply with the bare figure in % and do not write the unit itself.

In plain terms, O=C(OCCN1C(=O)c2cccc3c(N4CCOCC4)ccc(c23)C1=O)c1ccccc1Cl has a documented inhibition of 151

In plain terms, COc1cc2c(cc1NC(=S)NC(=O)/C=C/c1ccco1)oc1ccccc12 has a documented inhibition of 67.5

* * *

experiment: inhibitors of HIV fusion peptide binding, primary screen, biochemical, uHTS, fluorescence dequenching (AID 1986); settings: cell-free peptide binding, 30 min, at 20 µM, hits give high values
The whole screen tested about 290,000 compounds, of which about 890 (0.31%) were called active. Only a selection was taken, and actives are over-represented in it overall.
endpoint: inhibition (%)
Please reply with the bare figure in % and do not write the unit itself.

- compound: "O=C(Nc1ccncc1)Nc1ccc(F)c(Cl)c1"
  result value: 0.5
- compound: "COc1ccc(NC(=S)NNc2ccc(S(=O)(=O)Nc3ccccc3C(=O)O)cc2[N+](=O)[O-])cc1"
  result value: 52.4
- compound: "CCCC1C2CN(C(C)C)CC=C2C(C#N)=C(N)C1(C#N)C#N (stereo not given)"
  result value: -3.6
- compound: "COc1ccccc1NS(=O)(=O)c1ccc(N/N=C/c2c(C)nn(-c3ccccc3)c2N2CCCC2)c([N+](=O)[O-])c1"
  result value: -5.2
- compound: "Cc1ccc([N+](=O)[O-])cc1S(=O)(=O)Nc1ccc(C(=O)N(C)C)cc1"
  result value: -0.4

In plain terms, CCOc1cc(/C=C2\C(=N)N3N=C(N4CCCCC4)SC3=NC2=O)ccc1OC(=O)c1ccco1 has a documented inhibition of 20.5

In plain terms, COc1cccc(Nc2nc3ccccc3nc2NS(=O)(=O)c2cccs2)c1 has a documented inhibition of 69.4

In plain terms, COc1ccc(NC(=O)c2ccccc2NS(=O)(=O)c2ccc(C)cc2)c([N+](=O)[O-])c1 has a documented inhibition of 1.8

In plain terms, COc1cc(N2CCCC2)c(OC)cc1/C=C(/C#N)c1cccc(F)c1 has a documented inhibition of 57.2

In plain terms, O=C1/C(=C\c2ccco2)SC(=S)N1c1ccccc1 has a documented inhibition of 41.6

* * *

assay: inhibitors of HIV fusion peptide binding, primary screen, biochemical, uHTS, fluorescence dequenching (AID 1986); conditions: cell-free peptide binding, 30 min, at 20 µM, hits give high values
The whole screen tested about 290,000 compounds, of which about 890 (0.31%) were called active. This excerpt belongs to a sample that is enriched for actives.
Outcome: yes (1) for inhibition of at least 30%; no (0) for anything lower.

- cpd smiles: "CCN1CCN(Cc2c(O)ccc3c2O/C(=C\\C=C\\c2ccccc2OC)C3=O)CC1"
  group: "yes (1)"
- cpd smiles: "COc1ccc(N2CC(O)=C(c3n(C)c4ccccc4[n+]3C)C2=N)cc1"
  group: "no (0)"
- cpd smiles: "Cc1ccc(Cn2c(/C=C/c3ccco3)nc3ccccc32)cc1"
  group: "no (0)"
- cpd smiles: "COc1ccc(OC)c(CN2CCN(S(=O)(=O)c3ccc(NC(C)=O)cc3)CC2)c1"
  group: "no (0)"
- cpd smiles: "Clc1ccccc1Cn1c(/C=C/c2ccco2)nc2ccccc21"
  group: "yes (1)"

*Q* Decide: inhibition of Cn1c(N=Nc2ccc(N3CCOCC3)cc2)[n+](C)c2ccccc21 >= 30%?
*A* no (0)

*Q* Decide: inhibition of O=Cc1ccc2noc(-c3ccc(Cl)cc3)c2c1 >= 30%?
*A* no (0)

*Q* Decide: inhibition of O=C1/C(=C/C=C/c2ccccc2)Oc2c1ccc(O)c2CN1CCN(CCO)CC1 >= 30%?
*A* yes (1)

*Q* Decide: inhibition of COc1ccc(C(=O)N2C(=S)NC(=O)/C2=C\c2ccc(C)cc2)cc1 >= 30%?
*A* yes (1)

*Q* Decide: inhibition of O=C1NC(=S)N(C(=O)c2ccc(F)cc2)/C1=C/c1cccnc1 >= 30%?
*A* no (0)

*Q* Decide: inhibition of O=c1cc(O)c2sc(Nc3ccc(F)c(Cl)c3)nc2[nH]1 >= 30%?
*A* yes (1)

*Q* Decide: inhibition of CS(=O)(=O)Oc1ccc2c(c1)O/C(=C\C=C\c1ccccc1)C2=O >= 30%?
*A* no (0)

*Q* Decide: inhibition of CCN(CC)Cc1c(O)ccc2c(-c3ccccc3)cc(=O)oc12 >= 30%?
*A* no (0)

*Q* Decide: inhibition of Clc1ccc(Cn2c(/C=C/c3ccco3)nc3ccccc32)cc1 >= 30%?
*A* yes (1)

*Q* Decide: inhibition of Cc1ccc(/C=C2\Oc3c(ccc(O)c3CN3CCN(CCO)CC3)C2=O)cc1 >= 30%?
*A* yes (1)

*Q* Decide: inhibition of CCN(CC)Cc1c(O)ccc2c(=O)c(-c3ccccc3)coc12 >= 30%?
*A* no (0)

* * *

experiment: inhibitors of HIV fusion peptide binding, primary screen, biochemical, uHTS, fluorescence dequenching (AID 1986); details: cell-free peptide binding, 30 min, at 20 µM, hits give high values
In all, about 290,000 compounds went through this assay and about 890 (0.31%) were called active. Shown is part of a subset that was picked to be rich in actives.
endpoint: inhibition (%)
Please reply with the bare figure in % and do not write the unit itself.

- compound: "Cc1cccn2cc(CCNC(=O)c3ccco3)nc12"
  unit string: "%"
  result value: -0.6
- compound: "NC(=O)C1CCN(C(=O)CN2CCc3ccccc32)CC1"
  unit string: "%"
  result value: -0.5
- compound: "COc1ccc(/C=C2\\C(=O)NC(=S)N2C(=O)c2ccc(F)cc2)cc1"
  unit string: "%"
  result value: 70.6

In plain terms, O=C1NC(=S)N(C(=O)c2ccc(F)cc2)/C1=C/c1ccccc1 has a documented inhibition of 79

In plain terms, CCCCCCc1cc2cc(-c3nnc(-c4ccccc4O)o3)c(=O)oc2cc1O has a documented inhibition of 65.1

In plain terms, CN(C)[C@@H]1C(=O)C(C(=O)NCN2CCCC2)=C(O)[C@@]2(O)C(=O)C3=C(O)c4c(O)cccc4[C@@](C)(O)C3CC12 (stereo partly specified) has a documented inhibition of 55.1

In plain terms, CCCN(CCC)Cc1cc2ccccc2c2c1COC2 has a documented inhibition of 1.9

In plain terms, Cn1c(CC(=O)Nc2ccc(Cl)cc2)nnc1SCC(=O)N1CCOCC1 has a documented inhibition of -1

* * *

test: inhibitors of HIV fusion peptide binding, primary screen, biochemical, uHTS, fluorescence dequenching (AID 1986); settings: cell-free peptide binding, 30 min, at 20 µM, hits give high values
Out of some 290,000 compounds screened, about 890 (0.31%) were called active. The sample holds actives, similar compounds and a random draw of the others, so the mix is not that of the screen.
endpoint: inhibition (%)
Please reply with the bare figure in % and do not write the unit itself.

- cpd smiles: "Cc1cc(S(=O)(=O)N2CCN(c3ccccn3)CC2)c(C)cc1Cl"
  inhibition, %: -0.6

In plain terms, C[n+]1ccc(/C=C/c2c[nH]c3ccc(F)cc23)cc1 has a documented inhibition of 77.8

In plain terms, COc1ccc2[nH]cc(/C=C/c3cc[n+](C)cc3)c2c1 has a documented inhibition of 18.3

In plain terms, Cc1ccc2[nH]cc(/C=C/c3cc[n+](C)cc3)c2c1 has a documented inhibition of 160

In plain terms, CC(=O)Nc1sc(N/N=C\c2ccc(O)cc2)nc1-c1cccs1 has a documented inhibition of -0.1

In plain terms, COc1nc2ccccc2nc1OC has a documented inhibition of 0.6

* * *

Listed below: inhibition values for each entry.
test: inhibitors of HIV fusion peptide binding, primary screen, biochemical, uHTS, fluorescence dequenching (AID 1986); conditions: cell-free peptide binding, 30 min, at 20 µM, hits give high values
About 890 (0.31%) of roughly 290,000 compounds were called active. The entries come from a sample that favours actives as a whole.
Please reply with the bare figure in % and do not write the unit itself.

Please review the entries below; each comes with its answer.
- compound: "Cc1ccc(NC(=O)c2ccc3nsnc3c2)c(Cl)c1"
  unit string: "%"
  result value: 1.6
- compound: "COc1ccccc1-c1nnc(SCC(=O)N2CCC(C)CC2)o1"
  unit string: "%"
  result value: -1.2
- compound: "NC(=S)N/N=C/c1ccccc1O"
  unit string: "%"
  result value: -1.4
- compound: "CSc1ncc(CN2CCCC(C(=O)c3ccc(C(C)(C)C)cc3)C2)cn1 (configuration not stated)"
  unit string: "%"
  result value: 2.1
- compound: "CCOC(=O)CNC(=O)Cn1cnc2c(nnn2-c2ccccc2)c1=O"
  unit string: "%"
  result value: -0.8
- compound: "COC(=O)c1ccc(C(=O)OC)c(=O)[nH]1"
  unit string: "%"
  result value: -0.4

In plain terms, CC(C)NC(=O)c1ccc(CN2CCC(Cc3ccccc3)CC2)cc1 has a documented inhibition of -0.1

In plain terms, O=C(Nc1nnc(-c2ccco2)s1)C1CCCCC1 has a documented inhibition of 2.3

In plain terms, Nc1nc(-c2ccco2)c(-c2ccco2)s1 has a documented inhibition of 1.2
